species on record: Homo sapiens; experiment: Selectivity ratio of Ki for delta opioid receptor (unknown origin) to Ki for kappa opioid receptor (unknown origin)
measurementType: Ratio Ki

Entry "O=C(N[C@@]12CCC(=O)[C@@H]3Oc4c(O)ccc5c4[C@@]31CCN(CC1CC1)[C@@H]2C5)c1ccncc1" ; Ratio Ki = 33

Entry "Cl.O=C(N[C@@]12CCC(=O)[C@@H]3Oc4c(O)ccc5c4[C@@]31CCN(CC1CC1)[C@@H]2C5)c1cc2ccccc2cn1" ; Ratio Ki = 93

Entry "Cl.O=C(N[C@@]12CCC(=O)[C@@H]3Oc4c(O)ccc5c4[C@@]31CCN(CC1CC1)[C@@H]2C5)c1cccnc1" ; Ratio Ki = 249

Entry "O=C(O[C@@]12CCC(=O)[C@@H]3Oc4c(O)ccc5c4[C@@]31CCN(CC1CC1)[C@@H]2C5)c1cnc2ccccc2c1" ; Ratio Ki = 5.5

Entry "O=C(O[C@@]12CCC(=O)[C@@H]3Oc4c(O)ccc5c4[C@@]31CCN(CC1CC1)[C@@H]2C5)c1ccccc1" ; Ratio Ki = > 17

Entry "O=C(O[C@@]12CCC(=O)[C@@H]3Oc4c(O)ccc5c4[C@@]31CCN(CC1CC1)[C@@H]2C5)c1cccnc1" ; Ratio Ki = 3.6

Entry "O=C(Cc1ccccn1)N[C@@]12CCC(=O)[C@@H]3Oc4c(O)ccc5c4[C@@]31CCN(CC1CC1)[C@@H]2C5" ; Ratio Ki = 21

----------
organism: Homo sapiens; test: Selectivity ratio of Ki for delta opioid receptor (unknown origin) to Ki for mu opioid receptor (unknown origin)
measurementType: Ratio Ki

Check out these entries, answers already filled in.
O=C(Cc1ccccn1)N[C@@]12CCC(=O)[C@@H]3Oc4c(O)ccc5c4[C@@]31CCN(CC1CC1)[C@@H]2C5    14
O=C(O[C@@]12CCC(=O)[C@@H]3Oc4c(O)ccc5c4[C@@]31CCN(CC1CC1)[C@@H]2C5)c1ccccn1    838
O=C(N[C@@]12CCC(=O)[C@@H]3Oc4c(O)ccc5c4[C@@]31CCN(CC1CC1)[C@@H]2C5)c1ccc2ccccc2c1    1.7

Entry "O=C(CCc1ccccn1)N[C@@]12CCC(=O)[C@@H]3Oc4c(O)ccc5c4[C@@]31CCN(CC1CC1)[C@@H]2C5" ; Ratio Ki = 29

Entry COc1cccc2c1[C@]13CCN(CC4CC4)[C@H](C2)[C@]1(OC)CCC(=O)C3 [CYPRODIME] ; Ratio Ki = 39

Entry "O=C(O[C@@]12CCC(=O)[C@@H]3Oc4c(O)ccc5c4[C@@]31CCN(CC1CC1)[C@@H]2C5)c1ccc2ccccc2n1" ; Ratio Ki = 16

Entry "O=C(O[C@@]12CCC(=O)[C@@H]3Oc4c(O)ccc5c4[C@@]31CCN(CC1CC1)[C@@H]2C5)c1cnc2ccccc2c1" ; Ratio Ki = 304

----------
species: Homo sapiens; assay: Selectivity ratio of Ki for delta opioid receptor (unknown origin) to Ki for kappa opioid receptor (unknown origin)
measurementType: Ratio Ki
Write no unit; give the number alone.

O=C(CCc1ccccn1)N[C@@]12CCC(=O)[C@@H]3Oc4c(O)ccc5c4[C@@]31CCN(CC1CC1)[C@@H]2C5    54

Entry "O=C(N[C@@]12CCC(=O)[C@@H]3Oc4c(O)ccc5c4[C@@]31CCN(CC1CC1)[C@@H]2C5)c1ccc2ccccc2c1" ; Ratio Ki = 32

Entry "O=C(CNC(=O)c1ccccn1)N[C@@]12CCC(=O)[C@@H]3Oc4c(O)ccc5c4[C@@]31CCN(CC1CC1)[C@@H]2C5" ; Ratio Ki = 2.6

Entry "O=C(O[C@@]12CCC(=O)[C@@H]3Oc4c(O)ccc5c4[C@@]31CCN(CC1CC1)[C@@H]2C5)c1ccc2ccccc2c1" ; Ratio Ki = 19
